SYSTEM: Tap (tripeptidyl aminopeptidase) (Streptomyces lividans, UniProt Q54410)
Construct: An autolytic tripeptide cleavage removing APA after signal peptide removal would yield the N-terminal found for the secreted protease
Sequence (Q54410 40-537): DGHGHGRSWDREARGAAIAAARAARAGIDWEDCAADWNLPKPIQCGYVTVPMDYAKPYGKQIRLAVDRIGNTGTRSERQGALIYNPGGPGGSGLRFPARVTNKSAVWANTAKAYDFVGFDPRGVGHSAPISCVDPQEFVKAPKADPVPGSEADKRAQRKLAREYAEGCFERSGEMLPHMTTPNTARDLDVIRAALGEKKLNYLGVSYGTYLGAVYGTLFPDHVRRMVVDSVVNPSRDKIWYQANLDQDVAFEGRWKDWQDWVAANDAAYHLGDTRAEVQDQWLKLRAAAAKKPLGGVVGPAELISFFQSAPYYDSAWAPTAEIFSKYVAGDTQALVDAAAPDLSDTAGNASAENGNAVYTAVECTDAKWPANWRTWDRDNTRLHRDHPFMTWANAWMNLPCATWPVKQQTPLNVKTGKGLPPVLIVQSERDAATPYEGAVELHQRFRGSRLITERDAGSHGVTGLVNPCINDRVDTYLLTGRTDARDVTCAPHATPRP
PROTOCOL SUMMARY: Inactivation of Tap by APACMK assayed with APA-pNA, determination of kinetic constants
MEASUREMENT CONDITIONS: inactivation of Tap, APA-pNA as substrate
Where a SMILES comes first, the peptide text is derived from it. The star is where a group is joined. CH2Cl = ClC*
OUTCOME MEASURE: Ki (µM)

COMPOUND	OUTCOME MEASURE	VALUE
C[C@H](N)C(=O)N1CCC[C@H]1C(=O)N[C@@H](C)C(=O)CCl [APACMK] (H-Ala-Pro-Ala-CH2Cl)	Ki	3.3

----------
SYSTEM: Tap (tripeptidyl aminopeptidase) (Streptomyces lividans, UniProt Q54410)
Construct: An autolytic tripeptide cleavage removing APA after signal peptide removal would yield the N-terminal found for the secreted protease; made in house; host or cells: Streptomyces lividans 66 (wild-type strain, native secreted enzyme purified from the broth)
Sequence (Q54410 40-537): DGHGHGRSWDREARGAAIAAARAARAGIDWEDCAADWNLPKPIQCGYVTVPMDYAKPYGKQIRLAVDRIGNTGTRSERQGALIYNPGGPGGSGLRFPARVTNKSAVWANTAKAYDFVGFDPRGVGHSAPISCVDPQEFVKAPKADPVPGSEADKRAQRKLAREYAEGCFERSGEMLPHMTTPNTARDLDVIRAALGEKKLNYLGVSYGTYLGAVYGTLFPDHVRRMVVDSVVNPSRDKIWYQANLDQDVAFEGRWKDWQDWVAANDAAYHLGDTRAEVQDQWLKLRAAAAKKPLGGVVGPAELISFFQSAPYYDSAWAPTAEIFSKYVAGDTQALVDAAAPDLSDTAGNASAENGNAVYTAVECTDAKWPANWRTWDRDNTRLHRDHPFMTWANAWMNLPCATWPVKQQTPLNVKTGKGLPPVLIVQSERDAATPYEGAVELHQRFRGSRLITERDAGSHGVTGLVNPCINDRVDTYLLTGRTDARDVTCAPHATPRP
PROTOCOL SUMMARY: Release of reporter group from synthetic substrates by pure Tap
Format: biochemical, S. lividans 66
Where a SMILES comes first, the peptide text is derived from it. The star is where a group is joined. pNA = O=[N+]([O-])c1ccc(N*)cc1; βNA = c1ccc2cc(N*)ccc2c1
OUTCOME MEASURE: release of reporter group when used as substrate of Tap

COMPOUND	SYSTEM	VALUE
C[C@H](N)C(=O)N1CCC[C@H]1C(=O)N[C@@H](CO)C(=O)Nc1ccc2ccccc2c1 [APS-bNA] (H-Ala-Pro-Ser-βNA)	Tap (tripeptidyl aminopeptidase) (Streptomyces lividans, UniProt Q54410)	active
C[C@H](NC(=O)[C@@H]1CCCN1C(=O)[C@@H](N)CO)C(=O)Nc1ccc2ccccc2c1 [SPA-bNA] (H-Ser-Pro-Ala-βNA)	Tap (tripeptidyl aminopeptidase) (Streptomyces lividans, UniProt Q54410)	active
CSCC[C@H](NC(=O)[C@@H]1CCCN1C(=O)[C@H](C)N)C(=O)Nc1ccc([N+](=O)[O-])cc1 [APM-pNA] (H-Ala-Pro-Met-pNA)	Tap (tripeptidyl aminopeptidase) (Streptomyces lividans, UniProt Q54410)	active
